Source listed as patent US12319655B2.

- Target Under Test: A-Raf kinase (SEQ. ID No: 1) (Homo sapiens (Human), UniProt P10398, Y301D/Y302D)
- Sequence (P10398 other isoform, or with tags, fused parts or gaps Y301D (already in the parent)/Y302D (already in the parent)): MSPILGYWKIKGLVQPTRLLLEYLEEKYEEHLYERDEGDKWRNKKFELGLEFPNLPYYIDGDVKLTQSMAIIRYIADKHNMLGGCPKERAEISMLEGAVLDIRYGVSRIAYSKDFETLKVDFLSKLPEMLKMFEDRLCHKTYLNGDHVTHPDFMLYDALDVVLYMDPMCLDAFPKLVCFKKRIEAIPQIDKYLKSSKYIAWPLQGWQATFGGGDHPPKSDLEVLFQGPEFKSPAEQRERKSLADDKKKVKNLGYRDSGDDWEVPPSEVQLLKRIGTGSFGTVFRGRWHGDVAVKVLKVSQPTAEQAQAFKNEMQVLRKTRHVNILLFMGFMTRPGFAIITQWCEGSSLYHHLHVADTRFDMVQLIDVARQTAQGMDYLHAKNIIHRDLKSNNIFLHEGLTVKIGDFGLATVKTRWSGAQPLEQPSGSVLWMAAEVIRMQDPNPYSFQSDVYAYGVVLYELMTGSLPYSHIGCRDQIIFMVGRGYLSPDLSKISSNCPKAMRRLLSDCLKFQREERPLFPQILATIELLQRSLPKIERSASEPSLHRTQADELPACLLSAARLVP
- Test Description: Biochemical Assay for A-Raf (1)
- Experimental Conditions: Table J, assay version (1); read-out: ARAF (1) IC50
Experimental Readout: IC50

IC50 recorded for this compound, CC(=O)Nc1cc(-c2cc(-c3cc(NC(=O)c4ccnc(C(F)(F)F)c4)c(F)cc3C)cc(=O)n2C)ccn1 [Example 155] , is 1000 to 10000 nM

IC50 recorded for this compound, Cc1ccc(NC(=O)c2ccnc(C(C)(C)C#N)c2)cc1-c1nccc(-c2ccnc(NC(=O)C3CC3)c2)n1 [Example 169] , is 100 to 500 nM

IC50 recorded for this compound, CC(=O)Nc1cc(-c2cc(-c3cc(NC(=O)c4ccnc(C(F)(F)F)c4)cnc3C)ccn2)ccn1 [Example 36] , is 1000 to 10000 nM

IC50 recorded for this compound, Cc1ccc(NC(=O)c2ccnc(C(F)(F)F)c2)cc1-c1ccnc(-c2ccnc(NC(=O)CC#N)c2)n1 [Example 144] , is 100 to 500 nM

IC50 recorded for this compound, CNC(=O)c1cc(-c2cnnc(-c3cc(NC(=O)c4ccnc(C(C)(C)OC)c4)ccc3C)c2)ccn1 [Example 328] , is 1000 to 10000 nM

IC50 recorded for this compound, Cc1ncc(NC(=O)C23CCC(C#N)(CC2)CC3)cc1-c1cccc(-c2ccnc(NC(=O)C3CC3)c2)n1 [Example 342] , is 1000 to 10000 nM

IC50 recorded for this compound, CC(=O)Nc1cc(-c2cc(-c3cc(NC(=O)c4ccnc(C(F)(F)F)c4)c(F)cc3C)cc(C)n2)ccn1 [Example 4] , is 1000 to 10000 nM
